FYI, the data here is from patent US8853230B2.

target: JAK3 (Homo sapiens); construct: 5 μl of catalytic domain recombinant Kinase enzyme+Tyr peptide substrate (Invitrogen, Calif.); assay: Z'-LYTE kinase assay, JAK3 tyrosine phosphorylation activity
Sequence (P52333 822-1111 limits assumed): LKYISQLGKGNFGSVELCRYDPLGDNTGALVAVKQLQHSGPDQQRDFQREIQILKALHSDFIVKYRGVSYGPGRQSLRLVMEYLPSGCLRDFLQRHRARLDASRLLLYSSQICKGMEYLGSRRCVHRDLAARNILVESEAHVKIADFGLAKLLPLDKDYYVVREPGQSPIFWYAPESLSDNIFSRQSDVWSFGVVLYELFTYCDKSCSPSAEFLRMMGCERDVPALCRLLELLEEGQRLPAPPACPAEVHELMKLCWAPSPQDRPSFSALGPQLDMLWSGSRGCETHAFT
measurementName: IC50

1) NC(=O)c1cnc(Nc2cccc(NC(=O)N3CCCC3)c2)nc1NCc1cccc(Cl)c1 [Example 180] | 1 to 10 nM

Query block: Check the records and state IC50 for NC(=O)c1cnc(Nc2cccc(NC(=O)[C@@H]3CCCO3)c2)nc1NCc1ccccc1 [Example 206]
Result block: 1 to 10 nM

Query block: Check the records and state IC50 for CNC(=O)Nc1ccc(F)c(Nc2ncc(C(N)=O)c(NCc3ccccc3)n2)c1 [Example 200]
Result block: 10 to 100 nM

Query block: Check the records and state IC50 for CC(=O)Nc1cccc(Nc2ncc(C(N)=O)c(NCC(=O)N3CCCC3)n2)c1 [Example 65]
Result block: 10 to 100 nM

Query block: Check the records and state IC50 for NC(=O)c1cnc(Nc2cccc(N(C(=O)C3CC3)C3CC3)c2)nc1NCc1ccccc1 [Example 151]
Result block: > 1000 nM

Query block: Check the records and state IC50 for COCC(=O)Nc1cccc(Nc2ncc(C(N)=O)c(NCc3ccc(Cl)c(Cl)c3)n2)c1 [Example 46]
Result block: 100 to 1000 nM

Query block: Check the records and state IC50 for CC(=O)Nc1cccc(Nc2ncc(C(N)=O)c(NCCC(N)=O)n2)c1 [Example 61]
Result block: 10 to 100 nM
